System: HT29 RAMS11 overexpressing cells
Test Description: High-throughput viability assay (resazurin), 119 FDA-approved anticancer drugs, RAMS11 overexpressing cells (Clone1, Clone2)
Particulars: OE1 (RAMS11 overexpression clone 1), 0.1 uM drug, 72 h, vs empty vector control

- Compound: "Clc1ccc(C(c2ccccc2Cl)C(Cl)Cl)cc1 (stereo not drawn) [Mitotane]"
  Viability Fold Change: 0.8185
- Compound: "O=C1c2c(O)ccc(O)c2C(=O)c2c(NCCNCCO)ccc(NCCNCCO)c21 [Mitoxantrone]"
  Viability Fold Change: 1.145
- Compound: "O=P(O)(O)C(O)(Cn1ccnc1)P(=O)(O)O [Zoledronic acid]"
  Viability Fold Change: 0.9494
- Compound: "CC[C@H](Nc1ncnc2[nH]cnc12)c1nc2cccc(F)c2c(=O)n1-c1ccccc1 [Idelalisib]"
  Viability Fold Change: 0.9092
- Compound: "CO[C@@]12[C@H](COC(N)=O)C3=C(C(=O)C(C)=C(N)C3=O)N1C[C@@H]1N[C@@H]12 [Mitomycin]"
  Viability Fold Change: 0.9668
- Compound: "N[C@@H](Cc1ccc(N(CCCl)CCCl)cc1)C(=O)O [Melphalan]"
  Viability Fold Change: 0.9214
- Compound: "CCCCC(=O)OCC(=O)[C@]1(O)Cc2c(O)c3c(c(O)c2[C@@H](O[C@H]2C[C@H](NC(=O)C(F)(F)F)[C@H](O)[C@H](C)O2)C1)C(=O)c1c(OC)cccc1C3=O [Valrubicin]"
  Viability Fold Change: 0.9645
- Compound: "O=C(CCCCCCC(=O)Nc1ccccc1)NO [Vorinostat]"
  Viability Fold Change: 1.123
- Compound: "COc1cc(Nc2c(C#N)cnc3cc(OCCCN4CCN(C)CC4)c(OC)cc23)c(Cl)cc1Cl [Bosutinib]"
  Viability Fold Change: 1.048
- Compound: "O=C(CCBr)N1CCN(C(=O)CCBr)CC1 [Pipobroman]"
  Viability Fold Change: 0.9413
- Compound: "CC(=O)Nc1cccc(-n2c(=O)n(C3CC3)c(=O)c3c(Nc4ccc(I)cc4F)n(C)c(=O)c(C)c32)c1 [Trametinib]"
  Viability Fold Change: 1.35
- Compound: "CS(=O)(=O)OCCCCOS(C)(=O)=O [Busulfan]"
  Viability Fold Change: 1.001
- Compound: "Nc1cccc2c1CN(C1CCC(=O)NC1=O)C2=O (stereo not drawn) [Lenalidomide]"
  Viability Fold Change: 0.9659
- Compound: "O=C(c1cc(Cc2n[nH]c(=O)c3ccccc23)ccc1F)N1CCN(C(=O)C2CC2)CC1 [Olaparib]"
  Viability Fold Change: 0.8162
- Compound: "C[C@]12CC[C@H](O)CC1=CC[C@@H]1[C@@H]2CC[C@]2(C)C(c3cccnc3)=CC[C@@H]12 [Abiraterone]"
  Viability Fold Change: 0.9503
- Compound: "Nc1cccc2c1C(=O)N(C1CCC(=O)NC1=O)C2=O (stereo not drawn) [Pomalidomide]"
  Viability Fold Change: 0.9335
- Compound: "CO[C@H]1C[C@@H]2CC[C@@H](C)[C@@](O)(O2)C(=O)C(=O)N2CCCC[C@H]2C(=O)O[C@H]([C@H](C)C[C@@H]2CC[C@@H](OCCO)[C@H](OC)C2)CC(=O)[C@H](C)/C=C(\\C)[C@@H](O)[C@@H](OC)C(=O)[C@H](C)C[C@H](C)/C=C/C=C/C=C/1C [Everolimus]"
  Viability Fold Change: 0.6419
- Compound: "NC(=O)NO [Hydroxyurea]"
  Viability Fold Change: 0.9496
